Reported values of log10 of Kd for individual entries
Target: T1, PUF4 RNA-binding domain (Saccharomyces cerevisiae, UniProt P25339 537-888)
T1 sequence: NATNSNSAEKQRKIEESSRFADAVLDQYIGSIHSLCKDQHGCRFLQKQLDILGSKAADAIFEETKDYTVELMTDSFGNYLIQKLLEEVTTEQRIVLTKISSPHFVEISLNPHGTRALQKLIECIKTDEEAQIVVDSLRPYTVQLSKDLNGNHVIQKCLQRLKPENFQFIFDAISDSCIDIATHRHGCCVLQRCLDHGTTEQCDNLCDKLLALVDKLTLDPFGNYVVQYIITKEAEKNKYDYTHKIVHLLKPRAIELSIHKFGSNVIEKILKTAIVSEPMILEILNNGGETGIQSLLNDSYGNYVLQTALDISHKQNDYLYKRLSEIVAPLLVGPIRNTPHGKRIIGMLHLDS
Experiment: Mg; RNA-MaP; 20 mM Na-HEPES pH 7.4, 30 mM KOAc, 0.75 mM MgCl2, 0.1% Tween-20, 5% glycerol, 0.1 mg/mL BSA, 2 mM DTT; 25 C; 0.0125-409.6 nM protein
Details: tags: N-His6-TEV cleaved; C-SNAP kept, Cy3B-labelled; label: tethered on chip by stalled RNA polymerase
Readout Kind: log10 of Kd (log10 of the value in nM)

[[record]]
binder = "Id_ii_S2_P3E.2_K3.1_C3.2_[C-2T]_H3.1_A3.1_F3.1_T3.2_[A10G] (ssRNA) RNA: UUUGAUUAAUAUGAUAUCGUUCUUUCUUUUGUAUAUAUGUUCUUUCUCGAUAUCAUAUUAAUCUUU"
endpoint_result = 0.42

[[record]]
binder = "UCUCUUCCUCUUUGUAUAUAUAUCUCUU (ssRNA) [Ie_S1_P3E.2_K3.1_C3.2_[+-2CTCT]_H3.1_A3.1_F3.1_T3.2]"
endpoint_result = 0.70

[[record]]
binder = "Ib_S2_P4E.1_K4.1_C4.1_H4.1_A4.1_[A6T]_F4.1_[T8A]_T4.1 (ssRNA) RNA: UUUGAUUAAUAUGAUAUCGUUCUUUCUUGUAUUUAAUUCUUUCUCGAUAUCAUAUUAAUCUUU"
endpoint_result = 1.25

[[record]]
binder = "UCUCUUUGUAUGUCCUUCUCUU (ssRNA) [Ic_S1_P5E.1_K5.1_C5.1_H5.1_A5.1_[T6G]_[A7T]_F5.1_[T8C]_[T9C]_[A10T]_T5.1]"
endpoint_result = 1.94

[[record]]
binder = "Id_ii_S2_P4E.3_K4.2_C4.2_[C-2T]_H4.2_A4.1_F4.1_T4.2_[G10A]_[T11A] (ssRNA) RNA: UUUGAUUAAUAUGAUAUCGUUCUUUCUUUUAUAUAUUAAAUUCUUUCUCGAUAUCAUAUUAAUCUUU"
endpoint_result = 2.15

